Origin of the recorded values: patent US20090012103A1

inhibition at 10 µM for assorted compounds
molecular target: UniProt:Q14524; assay: Late INa screening assay (late sodium current, PatchXpress whole cell patch clamp); format: cell-based; conditions: compound at 10 μM; read-out: Late INa % blk
Sequence (Q14524 whole entry): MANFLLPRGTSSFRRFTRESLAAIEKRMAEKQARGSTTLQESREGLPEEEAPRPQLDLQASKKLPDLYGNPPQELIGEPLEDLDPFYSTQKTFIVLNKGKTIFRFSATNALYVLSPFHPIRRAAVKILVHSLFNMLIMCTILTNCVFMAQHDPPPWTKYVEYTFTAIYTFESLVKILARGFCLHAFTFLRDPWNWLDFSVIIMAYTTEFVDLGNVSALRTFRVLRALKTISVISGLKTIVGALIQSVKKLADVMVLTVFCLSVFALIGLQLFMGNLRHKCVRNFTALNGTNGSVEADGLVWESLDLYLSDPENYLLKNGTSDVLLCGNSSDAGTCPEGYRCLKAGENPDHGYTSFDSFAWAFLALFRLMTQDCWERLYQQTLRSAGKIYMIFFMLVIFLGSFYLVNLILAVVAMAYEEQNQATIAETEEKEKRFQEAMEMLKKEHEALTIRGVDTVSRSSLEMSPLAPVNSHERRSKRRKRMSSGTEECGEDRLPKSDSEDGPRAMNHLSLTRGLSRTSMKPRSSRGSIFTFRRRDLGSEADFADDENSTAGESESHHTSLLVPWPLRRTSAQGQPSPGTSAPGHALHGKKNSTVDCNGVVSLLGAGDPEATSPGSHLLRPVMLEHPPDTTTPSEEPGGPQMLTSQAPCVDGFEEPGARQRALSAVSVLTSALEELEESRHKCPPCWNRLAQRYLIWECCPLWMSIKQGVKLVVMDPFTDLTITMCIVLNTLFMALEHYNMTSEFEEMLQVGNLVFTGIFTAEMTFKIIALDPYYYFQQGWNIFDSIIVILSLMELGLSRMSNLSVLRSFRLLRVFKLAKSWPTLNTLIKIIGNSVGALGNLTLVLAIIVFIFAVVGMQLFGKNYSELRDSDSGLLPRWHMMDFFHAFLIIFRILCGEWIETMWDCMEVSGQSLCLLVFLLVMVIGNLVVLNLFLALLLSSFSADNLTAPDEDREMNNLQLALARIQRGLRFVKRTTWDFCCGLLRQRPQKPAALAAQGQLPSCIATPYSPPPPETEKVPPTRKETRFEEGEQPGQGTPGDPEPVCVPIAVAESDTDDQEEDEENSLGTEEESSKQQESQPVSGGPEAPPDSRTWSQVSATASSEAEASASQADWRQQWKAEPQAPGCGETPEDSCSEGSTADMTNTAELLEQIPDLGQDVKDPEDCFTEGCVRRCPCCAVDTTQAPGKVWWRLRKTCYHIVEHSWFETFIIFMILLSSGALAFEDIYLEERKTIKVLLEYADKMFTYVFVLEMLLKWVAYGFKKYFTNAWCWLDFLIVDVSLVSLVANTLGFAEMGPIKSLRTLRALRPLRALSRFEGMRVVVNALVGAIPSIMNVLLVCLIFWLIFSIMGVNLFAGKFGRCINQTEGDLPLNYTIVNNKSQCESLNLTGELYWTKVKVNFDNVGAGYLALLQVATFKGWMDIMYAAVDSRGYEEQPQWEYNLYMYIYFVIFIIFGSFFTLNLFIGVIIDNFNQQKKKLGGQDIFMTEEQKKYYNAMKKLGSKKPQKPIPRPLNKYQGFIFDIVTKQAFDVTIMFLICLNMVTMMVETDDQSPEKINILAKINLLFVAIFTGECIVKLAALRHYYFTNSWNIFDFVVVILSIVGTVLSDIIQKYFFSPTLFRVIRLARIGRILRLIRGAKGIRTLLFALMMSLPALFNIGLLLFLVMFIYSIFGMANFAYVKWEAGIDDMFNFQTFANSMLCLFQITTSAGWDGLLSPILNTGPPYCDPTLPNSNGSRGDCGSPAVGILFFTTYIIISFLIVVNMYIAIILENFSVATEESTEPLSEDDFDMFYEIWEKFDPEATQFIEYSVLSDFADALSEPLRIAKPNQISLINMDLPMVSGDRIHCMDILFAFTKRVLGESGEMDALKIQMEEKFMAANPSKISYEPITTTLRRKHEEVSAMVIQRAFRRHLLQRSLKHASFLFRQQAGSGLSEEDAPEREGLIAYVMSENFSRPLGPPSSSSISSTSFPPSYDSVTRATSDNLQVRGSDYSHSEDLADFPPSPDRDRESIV
Please don't drop the unit; write it after the number.

Guide cases for inhibition at 10 µM, answers given:
COMPOUND	TEST_TARGET	PROPERTY_NAME	RECORDED_RESULT
CC1=C(C(=O)OCc2ccccc2)C(c2ccccc2-c2ccc([N+](=O)[O-])cc2)n2nnnc2N1 (stereo not drawn)	UniProt:Q14524	inhibition at 10 µM	41%
COC(=O)c1ccc(C2C(C(=O)OCc3ccccc3)=C(C)Nc3nnnn32)cc1 (stereo not drawn)	UniProt:Q14524	inhibition at 10 µM	27.6%
CC1=C(c2nnc(CCc3ccccc3)o2)C(c2cccc3ccccc23)n2nnnc2N1 (stereo not drawn)	UniProt:Q14524	inhibition at 10 µM	70%

# input Fill in the recorded inhibition at 10 µM for this compound, with UniProt:Q14524 as test system: CCOC(=O)C1=C(C)Nc2nc(C#N)c(C#N)n2C1c1cccc2ccccc12 (stereo not drawn)
# output 76.1%
